This listing pairs molecules with measured solubility.
Test: Solubility in simulated intestinal fluid at pH 5
Format: physicochemical
# number only, unit µg/mL dropped from output

Example entries and their recorded answers appear below.
| MOLECULE | MEASURED NUMBER |
| --- | --- |
| Cc1c[nH]c2c(Nc3cccc(Cl)c3)ncc(C(=O)N3CCOCC3)c12 | 160 |
| O=C(NCC1CCOCC1)c1cnc(Nc2ccc(Cl)cc2Cl)nc1C(F)(F)F [GW842166X] | 10 |

Next molecule, please.
GET /value?item= Cn1ccc2c(Nc3cccc(Cl)c3)ncc(C(=O)N3CCOCC3)c21 &field=solubility returns 590

###

Target: Cytochrome P450 2C19 (Homo sapiens)
Sequence (P33261 whole entry): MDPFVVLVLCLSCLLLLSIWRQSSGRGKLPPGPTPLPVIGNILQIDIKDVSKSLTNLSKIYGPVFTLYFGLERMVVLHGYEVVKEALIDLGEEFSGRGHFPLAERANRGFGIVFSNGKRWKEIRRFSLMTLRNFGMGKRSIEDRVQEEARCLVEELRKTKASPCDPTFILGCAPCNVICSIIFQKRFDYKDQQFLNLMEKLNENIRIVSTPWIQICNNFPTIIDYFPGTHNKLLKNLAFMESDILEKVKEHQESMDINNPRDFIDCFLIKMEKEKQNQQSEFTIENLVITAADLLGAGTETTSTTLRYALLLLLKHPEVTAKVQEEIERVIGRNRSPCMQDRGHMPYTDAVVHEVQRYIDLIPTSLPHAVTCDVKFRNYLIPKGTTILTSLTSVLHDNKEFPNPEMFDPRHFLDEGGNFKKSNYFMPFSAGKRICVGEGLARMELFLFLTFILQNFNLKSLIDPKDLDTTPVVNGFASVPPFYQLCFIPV
Each item that follows carries a reported IC50.
Give the number; µM is assumed, so skip it.

| MOL SMILES | IC50 [µM] |
| --- | --- |
| Cn1ccc2c(Nc3cccc(Cl)c3)ncc(C(=O)N3CCOCC3)c21 | 41 |

Field: next compound
Looking up Cc1c[nH]c2c(Nc3cccc(Cl)c3)ncc(C(=O)N3CCOCC3)c12 , I found its IC50 recorded as 29

###

Target: Cannabinoid receptor 2 (Homo sapiens, UniProt P34972)
Sequence (P34972 whole entry): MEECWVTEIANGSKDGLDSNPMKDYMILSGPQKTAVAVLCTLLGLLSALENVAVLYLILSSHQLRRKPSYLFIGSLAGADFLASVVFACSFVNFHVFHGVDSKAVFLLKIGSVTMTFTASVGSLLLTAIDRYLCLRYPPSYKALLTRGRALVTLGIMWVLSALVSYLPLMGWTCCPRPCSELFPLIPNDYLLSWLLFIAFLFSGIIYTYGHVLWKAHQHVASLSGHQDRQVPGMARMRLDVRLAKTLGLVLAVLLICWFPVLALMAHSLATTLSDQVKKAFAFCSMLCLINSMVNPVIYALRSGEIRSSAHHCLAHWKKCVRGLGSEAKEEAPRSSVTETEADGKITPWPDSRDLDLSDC
Experiment: Agonist activity at human recombinant cannabinoid CB2 receptor expressed in CHOK1 cells assessed as forskolin-induced cAMP production by luciferase assay
Assay type: functional, cell-based, CHO-K1
READOUT: pEC50
On this scale, pEC50 is minus log10 of a concentration expressed in M (mol/L).

Please fill in: pEC50 reported for Cn1ccc2c(Nc3cccc(Cl)c3)ncc(C(=O)N3CCOCC3)c21 = 8.10

###

Assay: Drug level in blood of rat joint model of chronic pain at 3 mg/kg, po BID for 5 days
Type: ADME, organism-based
Parameters: dose 3 mg/kg, route oral
Details: read-out: Drug uptake
READOUT: concentration at 120 h (nM)
The response must be a number in nM with no trailing unit.

Recorded result, Cn1ccc2c(Nc3cccc(Cl)c3)ncc(C(=O)N3CCOCC3)c21 , concentration at 120 h: 1800
